# System: corn (Zea mays)
# method: Test A postemergence, corn
# Format: in vivo
# condition set: 31 g ai/ha, postemergence; 0 to 100 scale, 0 is no effect, 100 is complete control; approximately 10 days
List of Plant response rating, Corn values.
Quick one: just the number, no unit, thanks!

[[record]]
compound = "FC(F)(F)CCOc1c(Cl)cccc1Oc1ncc(Cl)cn1 [Compound 43]"
assay_metric = "Plant response rating, Corn"
result_number = 10

[[record]]
compound = "N#Cc1cccc(Oc2ncc(F)cn2)c1OC/C=C/Cl [Compound 36]"
assay_metric = "Plant response rating, Corn"
result_number = 0

[[record]]
compound = "Cl/C=C/COc1c(Cl)cccc1Oc1ncc(Cl)cn1 [Compound 48]"
assay_metric = "Plant response rating, Corn"
result_number = 10

[[record]]
compound = "N#Cc1cccc(Oc2ncc(Cl)cn2)c1OC/C=C/Cl [Compound 7]"
assay_metric = "Plant response rating, Corn"
result_number = 10

[[record]]
compound = "Cc1cccc(Oc2ncc(Cl)cn2)c1OCCC(F)(F)F [Compound 64]"
assay_metric = "Plant response rating, Corn"
result_number = 0

[[record]]
compound = "N#CCCCOc1c(Cl)cccc1Oc1ncc(Cl)cn1 [Compound 45]"
assay_metric = "Plant response rating, Corn"
result_number = 0

[[record]]
compound = "FC(F)(F)C(F)(F)CCCOc1c(Br)cccc1Oc1ncc(Cl)cn1 [Compound 49]"
assay_metric = "Plant response rating, Corn"
result_number = 10

[[record]]
compound = "FC(F)=C(F)CCOc1c(Br)cccc1Oc1ncc(Cl)cn1 [Compound 38]"
assay_metric = "Plant response rating, Corn"
result_number = 10

[[record]]
compound = "N#Cc1cccc(Oc2ncc(Cl)cn2)c1OCCCCC(F)(F)F [Compound 32]"
assay_metric = "Plant response rating, Corn"
result_number = 10

[[record]]
compound = "CCCCCOc1c(C#N)cccc1Oc1ncc(Cl)cn1 [Compound 51]"
assay_metric = "Plant response rating, Corn"
result_number = 10


For record N#Cc1cccc(Oc2ncc(Cl)cn2)c1OCc1ccc(Cl)cn1 [Compound 6] the listed Plant response rating, Corn is 10

For record N#Cc1cccc(Oc2ncc(F)cn2)c1OCCCF [Compound 30] the listed Plant response rating, Corn is 0

For record Cc1cccc(Oc2ncc(Cl)cn2)c1OC/C=C/C(F)(F)F [Compound 58] the listed Plant response rating, Corn is 0
